molecular target: Phosphatidylinositol 4,5-bisphosphate 3-kinase catalytic subunit alpha isoform (Homo sapiens, UniProt P42336)
Sequence (P42336 whole entry, canonical isoform): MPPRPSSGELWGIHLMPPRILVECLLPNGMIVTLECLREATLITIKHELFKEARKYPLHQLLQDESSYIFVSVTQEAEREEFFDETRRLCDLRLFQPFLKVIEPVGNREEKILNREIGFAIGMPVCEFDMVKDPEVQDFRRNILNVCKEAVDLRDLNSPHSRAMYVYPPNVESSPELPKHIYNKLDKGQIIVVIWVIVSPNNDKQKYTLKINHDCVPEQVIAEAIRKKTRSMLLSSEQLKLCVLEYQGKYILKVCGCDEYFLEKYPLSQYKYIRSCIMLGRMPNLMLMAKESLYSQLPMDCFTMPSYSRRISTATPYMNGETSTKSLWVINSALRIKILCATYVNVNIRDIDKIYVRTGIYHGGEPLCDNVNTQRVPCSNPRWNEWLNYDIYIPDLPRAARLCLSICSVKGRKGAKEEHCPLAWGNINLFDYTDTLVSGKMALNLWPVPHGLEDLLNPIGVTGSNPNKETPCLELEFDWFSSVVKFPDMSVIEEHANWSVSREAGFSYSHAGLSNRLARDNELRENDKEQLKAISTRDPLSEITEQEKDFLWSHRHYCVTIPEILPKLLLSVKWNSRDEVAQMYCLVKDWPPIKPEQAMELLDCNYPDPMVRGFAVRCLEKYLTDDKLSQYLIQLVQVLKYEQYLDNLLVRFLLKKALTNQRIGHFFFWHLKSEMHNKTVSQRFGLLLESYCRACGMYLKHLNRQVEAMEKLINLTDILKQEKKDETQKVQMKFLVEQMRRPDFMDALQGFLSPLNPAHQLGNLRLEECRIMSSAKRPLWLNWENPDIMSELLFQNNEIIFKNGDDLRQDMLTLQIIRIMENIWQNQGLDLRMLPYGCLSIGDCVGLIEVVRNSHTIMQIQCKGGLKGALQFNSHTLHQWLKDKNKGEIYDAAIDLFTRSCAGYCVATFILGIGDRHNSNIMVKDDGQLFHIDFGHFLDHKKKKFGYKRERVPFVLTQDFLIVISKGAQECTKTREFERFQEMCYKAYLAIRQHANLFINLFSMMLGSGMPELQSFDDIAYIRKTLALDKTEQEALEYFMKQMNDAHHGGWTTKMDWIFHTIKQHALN
metric: pIC50
Field pIC50 (float): negative decimal logarithm of the concentration in molar.

get_value(item= C[C@@H]1COCCN1c1cc(N=[S@@](C)(=O)C2CC2)nc(-c2ccnc(N)c2)n1 , readout=pIC50) returns 4.54

###

experiment: in vivo; conditions: CD-1, mouse, po, 30 mg/kg
metric: Tmax (min)
Just the number please, in min, no unit attached.

get_value(item= C[C@@H]1COCCN1c1cc(N=[S@@](C)(=O)C2CC2)nc(-c2ccnc(N)c2)n1 , readout=Tmax) returns 15

###

Below are IC50 values recorded for Serine/threonine-protein kinase mTOR (Homo sapiens).

// known answers, use as guide
Cc1cc(-c2nc(N=S(C)(C)=O)cc(N3CCOC[C@H]3C)n2)cc(N)n1 :: > 10 µM
C[C@@H]1COCCN1c1cc(-c2ccnc3[nH]ccc23)nc(N=S(C)(C)=O)n1 :: > 10 µM

get_value(item= C[C@@H]1COCCN1c1cc(N=S(C)(C)=O)nc(-c2ccnc(N)c2)c1 , readout=IC50) returns > 10 µM
